These data points were gathered from the supplement of paper PMC10567573.

Reported protein stability index is given for each of the following variants.
B1: CHIT1 (parent)
chain: CSWKGATKQRIQDQKVPYIFRDNQ

variants of: B1; assay: protein stability index of a GFP-peptide fusion (GPS, HEK-293T) (PSI 1-6); higher = more stable; conditions: c terminus: a fixed tail appended;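 note: lentivirally expressed fusions sorted by FACS into six bins by GFP to DsRed ratio, PSI derived from sequencing read proportions per bin multiplied by bin number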

# ORDERED RESIDUES, protein stability index
data = [
    ("CSWKGATKQRIQDQKVPYCFRDNQ [I19C]", 2.35),
    ("CSWKGATKQRIQDQKVPYIFRDNI [Q24I]", 2.85),
    ("CSQKGATKQRIQDQKVPYIFRDNQ [W3Q]", 3.6),
    ("CSWKGATKQRIQDQKVPYIFSDNQ [R21S]", 3.12),
]
